The measurements presented in this section are drawn from patent US20230235048A1.

# measured-target: T1, extracellular domain (ECD) of recombinant human Sortilin with a C-terminal HIS tag (ECD-huSortilin-HIS) (human, UniProt Q99523 78-755)
# T1 construct: Bought (R&D Systems); also called human sortilin-ECD; not shown: C-terminal HIS tag
# T1 sequence: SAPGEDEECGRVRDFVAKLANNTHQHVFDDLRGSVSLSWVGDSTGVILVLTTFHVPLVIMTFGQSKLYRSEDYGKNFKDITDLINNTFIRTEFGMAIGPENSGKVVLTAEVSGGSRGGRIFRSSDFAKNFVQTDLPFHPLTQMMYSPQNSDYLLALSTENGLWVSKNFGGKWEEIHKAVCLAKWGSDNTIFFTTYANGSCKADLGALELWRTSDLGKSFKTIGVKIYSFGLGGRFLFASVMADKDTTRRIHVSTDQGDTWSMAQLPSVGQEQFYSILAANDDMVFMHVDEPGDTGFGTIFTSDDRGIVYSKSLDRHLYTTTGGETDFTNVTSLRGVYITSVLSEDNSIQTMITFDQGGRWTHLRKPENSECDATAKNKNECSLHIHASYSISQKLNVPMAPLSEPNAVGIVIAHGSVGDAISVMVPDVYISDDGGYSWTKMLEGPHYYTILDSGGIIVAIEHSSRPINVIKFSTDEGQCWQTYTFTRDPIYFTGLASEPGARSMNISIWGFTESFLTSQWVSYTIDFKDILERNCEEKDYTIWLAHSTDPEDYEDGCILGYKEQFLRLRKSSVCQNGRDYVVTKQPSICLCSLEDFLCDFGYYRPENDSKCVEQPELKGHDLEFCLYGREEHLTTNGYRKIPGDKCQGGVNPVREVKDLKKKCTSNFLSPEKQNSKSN
# assay-remarks: SPR (Biacore T200), mAb captured by anti-human antibody on CM5, Sortilin 0.1-300 nM as analyte, global 1:1 fit
experimental-endpoint: kon (M⁻¹ s⁻¹)
# output: bare number, implied unit M⁻¹ s⁻¹

binder	experimental-endpoint	reported
humanized 5E20 hu5E20VHv5/hu5E20VLv3 (antibody, V domains shown, Human IgG; also called 5E20H5L3) VH: EVQLVESGGGLVQPGGSLRLSCAASGFTFSTYGMSWVRQAPDKRLEWVAIISSGGSYTYYSDTVKGRFTISRDNSKNSLYLQMNSLKAEDTAVYYCSRSSSHWYFDVWGQGTLVTVSS VL: DIQMTQSPSSVSASVGDRVTITCHASQGISSNIGWLQQKPGKAFKGLIYHGTNLKDGVPSRFSGSGSGADFTLTISSLQPEDFATYFCVQYAQFPYTFGQGTKVEKR	kon	233000
humanized 11M14 hu11M14VHv2b/hu11M14VLv2b (antibody, V domains shown, Human IgG; also called 11M14H2bL2b) VH: EVQLVESGGGLVQPGGSLRLSCAASGFTFNIYGMSWVRQAPGKGLEWVATISSGGIYTYYPDILKGRFTISRDNAKNSLYLQMNSGRAEDTAVYYCARHPGGAMDYWGQGTLVTVSS VL: DIQMTQSPSSLSASVGDRVTITCRVSENIYSNLAWYQQKPGKSPKLLVYAATNLADGVPSRFSGSGSGTDYTLTISSLQPEDFATYYCQHFWGTPPWTFGQGTKLEIK	kon	421000
humanized 8H24 hu8H24VHv2/hu8H24VLv1 (antibody, V domains shown, Human IgG; also called 8H24H2L1) VH: QAQLVQSGAEVVKPGSSVKVSCKASGYTFTSYSMHWVRQAPGQGLEWIGAIYPGNDATSYNQKFKGRATLTVDKSTSTAYMELSSLRSEDTAVYFCAREGYYGSSFEAWFASWGQGTTVTVSS VL: DVVMTQTPLSLPVTPGEPASISCRSSQSIVHSNGNTYLEWYLQKPGQSPQLLIYKVSNRFSGVPDRFSGSGSGTDFTLKISRVEAEDVGVYYCFQGSHVLPTFGGGTKVEIK	kon	684000
humanized 11M14 hu11M14VHv1b/hu11M14VLv2b (antibody, V domains shown, Human IgG; also called 11M14H1bL2b) VH: EVQLVESGGGLVQPGGSLRLSCAASGFTFNIYGMSWVRQAPGKGLEWVATISSGGIYTYYPDILKGRFTISRDNAKNSLYLQMNSLRAEDTAVYYCARHPGGAMDYWGQGTLVTVSS VL: DIQMTQSPSSLSASVGDRVTITCRVSENIYSNLAWYQQKPGKSPKLLVYAATNLADGVPSRFSGSGSGTDYTLTISSLQPEDFATYYCQHFWGTPPWTFGQGTKLEIK	kon	360000
humanized 5E20 hu5E20VHv7/hu5E20VLv3 (antibody, V domains shown, Human IgG; also called 5E20H7L3) VH: EVQLVESGGGLVQPGGSLRLSCAASGFTFSTYGMSWVRQTPDKRLEWVAIISSGGSYTYYSDTVKGRFTISRDNSKNSLYLQMNSLRAEDTAVYYCSRSSSHWYFDVWGQGTLVTVSS VL: DIQMTQSPSSVSASVGDRVTITCHASQGISSNIGWLQQKPGKAFKGLIYHGTNLKDGVPSRFSGSGSGADFTLTISSLQPEDFATYFCVQYAQFPYTFGQGTKVEKR	kon	259000
humanized 11M14 hu11M14VHv3b/hu11M14VLv3b (antibody, V domains shown, Human IgG; also called 11M14H3bL3b) VH: EVQLVESGGGLVQPGGSLRLSCAASGFTFNIYGMSWVRQAPGKGLEWVATISSGGIYTYYPDILKGRFTISRDNAKNSLYGQMNSLRAEDTAVYYCARHPGGAMDYWGQGTLVTVSS VL: DIQMTQSPSSLSASVGDRVTITCRVSENIYSNLAWYQQKPGKSPKLLVYAATNGADGVPSRFSGSGSGTDYTLTISSLQPEDFATYYCQHFWGTPPWTFGQGTKLEIK	kon	374000
humanized 11M14 hu11M14VHv1b/hu11M14VLv3b (antibody, V domains shown, Human IgG; also called 11M14H1bL3b; hu11M14H1bL3b) VH: EVQLVESGGGLVQPGGSLRLSCAASGFTFNIYGMSWVRQAPGKGLEWVATISSGGIYTYYPDILKGRFTISRDNAKNSLYLQMNSLRAEDTAVYYCARHPGGAMDYWGQGTLVTVSS VL: DIQMTQSPSSLSASVGDRVTITCRVSENIYSNLAWYQQKPGKSPKLLVYAATNGADGVPSRFSGSGSGTDYTLTISSLQPEDFATYYCQHFWGTPPWTFGQGTKLEIK	kon	377000
humanized 11M14 hu11M14VHv3b/hu11M14VLv2b (antibody, V domains shown, Human IgG; also called 11M14H3bL2b) VH: EVQLVESGGGLVQPGGSLRLSCAASGFTFNIYGMSWVRQAPGKGLEWVATISSGGIYTYYPDILKGRFTISRDNAKNSLYGQMNSLRAEDTAVYYCARHPGGAMDYWGQGTLVTVSS VL: DIQMTQSPSSLSASVGDRVTITCRVSENIYSNLAWYQQKPGKSPKLLVYAATNLADGVPSRFSGSGSGTDYTLTISSLQPEDFATYYCQHFWGTPPWTFGQGTKLEIK	kon	319000

Please give measured kon of the following entry: humanized 5E20 hu5E20VHv3/hu5E20VLv4 (antibody, V domains shown, Human IgG; also called 5E20H3L4) VH: EVQLVESGGGLVQPGGSLRLSCAASGFTFSTYGMSWVRQAPGKRLEWVAIISSGGSYTYYSDTVKGRFTISRDNSKNSLYLQMNSLRAEDTAVYYCSRSSSHWYFDVWGQGTLVTVSS VL: DIQMTQSPSSVSASVGDRVTITCHASQGISSNIGWLQQKPGKAFKGLIYHGTNLKDGVPSRFSGSGSGADFTLTISSLQPEDFADYFCVQYAQFPYTFGQGTKVEKR
174000

Quickly give me recorded kon for humanized 11M14 hu11M14VHv1b/hu11M14VLv4b (antibody, V domains shown, Human IgG; also called 11M14H1bL4b) VH: EVQLVESGGGLVQPGGSLRLSCAASGFTFNIYGMSWVRQAPGKGLEWVATISSGGIYTYYPDILKGRFTISRDNAKNSLYLQMNSLRAEDTAVYYCARHPGGAMDYWGQGTLVTVSS VL: DIQMTQSPSSLSASVGDRVTITCRVSENIYSNLAWYQQKPGKSPKLLVYAATNIADGVPSRFSGSGSGTDYTLTISSLQPEDFATYYCQHFWGTPPWTFGQGTKLEIK
357000

Given humanized 5E20 hu5E20VHv7/hu5E20VLv4 (antibody, V domains shown, Human IgG; also called 5E20H7L4; hu5E20H7L4) VH: EVQLVESGGGLVQPGGSLRLSCAASGFTFSTYGMSWVRQTPDKRLEWVAIISSGGSYTYYSDTVKGRFTISRDNSKNSLYLQMNSLRAEDTAVYYCSRSSSHWYFDVWGQGTLVTVSS VL: DIQMTQSPSSVSASVGDRVTITCHASQGISSNIGWLQQKPGKAFKGLIYHGTNLKDGVPSRFSGSGSGADFTLTISSLQPEDFADYFCVQYAQFPYTFGQGTKVEKR , respond with its kon.
218000
